# TARGET_UNDER_TEST: T1, HLA-A*03:01 (human)
# T1 construct: Peptide-receptive MHC monomer made by UV cleavage of a UV-sensitive peptide
# METHOD_SUMMARY: UV-ligand exchange, anti-b2m ELISA; exchange yield grade (+ >10%, ++ >20%, +++ >50, ++++ >75%)

BINDER: KMAAWPFSR
peptide exchange yield: 50 to 75%
//
BINDER: KSFDRHFEK
peptide exchange yield: 50 to 75%
//
BINDER: GVIIAKKYFFK
peptide exchange yield: 20 to 50%
//
BINDER: RIYNGIGVSR
peptide exchange yield: 50 to 75%
//
BINDER: KMMADYGIRK
peptide exchange yield: 50 to 75%
//
BINDER: FSLAGALNAGFK
peptide exchange yield: 20 to 50%
//
BINDER: SSYSRSSAVK
peptide exchange yield: 50 to 75%
//
BINDER: AVLDLGSLLAK
peptide exchange yield: 50 to 75%
//
BINDER: MLLQQPLIY
peptide exchange yield: 20 to 50%
//
BINDER: KLYPTYSTK
peptide exchange yield: 20 to 50%
//
BINDER: ATWSASLKNK
peptide exchange yield: 50 to 75%
//
BINDER: AVATKFVNK
peptide exchange yield: 20 to 50%
//
BINDER: VLGPNGLLK
peptide exchange yield: 20 to 50%
//
BINDER: STNNEGNLK
peptide exchange yield: 20 to 50%
//
BINDER: KIIAPLVTR
peptide exchange yield: 20 to 50%
//
BINDER: KTYVGHPVKM
peptide exchange yield: 50 to 75%
